- Study Target: human GcgR (Homo sapiens)
- Sequence (P47871 26-477): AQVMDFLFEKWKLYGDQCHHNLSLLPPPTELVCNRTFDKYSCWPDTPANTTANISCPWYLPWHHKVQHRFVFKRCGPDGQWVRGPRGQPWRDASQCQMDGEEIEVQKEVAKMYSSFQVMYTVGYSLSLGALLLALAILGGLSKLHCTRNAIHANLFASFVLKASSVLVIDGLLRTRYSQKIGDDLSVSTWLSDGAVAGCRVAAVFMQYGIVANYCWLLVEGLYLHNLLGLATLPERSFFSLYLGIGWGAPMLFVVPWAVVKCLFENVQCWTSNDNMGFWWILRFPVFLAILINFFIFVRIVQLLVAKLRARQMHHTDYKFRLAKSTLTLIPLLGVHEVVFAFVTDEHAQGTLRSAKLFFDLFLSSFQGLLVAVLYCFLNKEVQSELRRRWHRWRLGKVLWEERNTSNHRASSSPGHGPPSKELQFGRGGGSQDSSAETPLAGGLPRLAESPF
- Method Description: Functional cAMP activity in the presence of 1% HSA
- Type: cell-based
- Test Context: read-out: cAMP Rel EC50, hGcgR
Starred links: 1 amine or outer side, 2 acyl side, 3 side chain; linkers in the order of their positions; H or OH if unused. Non-standard residues stand in square brackets, D forms with d. Groups on a side chain read outwards from the residue. *: point of attachment. C18 diacid = O=C(O)CCCCCCCCCCCCCCCCC(=O)*; αMePhe(2-F) = C[C@](N)(Cc1ccccc1F)C(=O)O; γGlu = O=C(O)[C@H](CCC(=O)[*:2])N[*:1]; αMe4Pal = C[C@](N)(Cc1ccncc1)C(=O)O; αMeY = C[C@](N)(Cc1ccc(O)cc1)C(=O)O; 4Pal = N[C@@H](Cc1ccncc1)C(=O)O; αMeL = CC(C)C[C@](C)(N)C(=O)O; Orn = NCCC[C@H](N)C(=O)O; AEEA = NCCOCCOCC(=O)O; Aib = CC(C)(N)C(=O)O
Please respond with reported pEC50 for every item in the list.
One number for each entry, as −log10 of the molar value.

Consider the reported pEC50 for these substances:
[
  {
    "Substance": "H-Y[Aib]QGTFTSD[4Pal]SR[αMeL]LDKK([AEEA-γGlu-C18 diacid])AQ[Aib]AFIEYLLE[Aib]GPSSGAPPPSGE-NH2 [Example 114]",
    "pEC50": 5.95
  },
  {
    "Substance": "H-Y[Aib]QGT[αMePhe(2-F)]TSD[4Pal]SI[αMeL]LD[Orn]K([AEEA-γGlu-C18 diacid])AQ[αMe4Pal]EFI[dE][αMeY]LQEGGPSSGEPPPSGS-NH2 [Example 648]",
    "pEC50": 5.93
  }
]

// pEC50 value for H-Y[Aib]QGTFTSDFS[Orn][αMeL]LDKK([AEEA-γGlu-C18 diacid])AQ[Aib]AFIEWLLEGGPSSGAPPPTGS-NH2 [Example 250] : 6.70

Data origin, for the record: patent US20240270821A1
